ASSAY_TEXT: yeast display, Sf9 membrane polyspecificity reagent, FACS + sequencing; frameworks hold sequencing errors
MEASURED_PROPERTY: polyreactivity (PSR sort gate)

[[record]]
sequence_input = "QVQLVESGGGLVQAGGSLRLSCAASGSTFGWYAIGWNRQAPGKERELVAAINSDGSTYYADSVKGRFTISRDNAKNNVYLQMNSLKPEDPAVYYCATDDALYGYLYHNYGYWGEGTQVTVSS"
measured = "low polyreactivity"

[[record]]
sequence_input = "QVQLVESGGGLVQAGGSLRLSCAASGRIFWYYAMVWYRQAPGKERELVATISSRSGSTYYADSVKGRFTISRDNAKNTVYLQMNSLKPEDTAVYYCAAGTPYYLGYRHNYWGQGTQVTVSS"
measured = "high polyreactivity"

[[record]]
sequence_input = "QVQLVESGGGLLQAGGSLRLSCAASGSTLRRYAMGWDRQAPGKERELVAAISGSGDSTYYADSVKGRFTISRDNAKNTVYLQMNSLKPEDTAVYYCNAVYAFNGYDYWGQGTQVTVSS"
measured = "low polyreactivity"

[[record]]
sequence_input = "QGQLVETGGGLVQAGGSLRLSCAASGRSSVSMLMGWYRQPPGKERELVARITGSGGSTFYADSVKGRFTISRDNAKNTVYLQMNSLIPEDTAVYYCAAGYLWRGRYNYWGQGTQVTVSS"
measured = "high polyreactivity"

[[record]]
sequence_input = "QVQLVESRGGLVQAGGSLRLSCAPSGSTFHYYAMGWYRQAQGKERELDAAISDRDGGTFYADSVKGRFTISRDNATNTVYLQINSLKPEDTAVYYCYARKRGARFILGYDYWGQGPQVTVSS"
measured = "low polyreactivity"

[[record]]
sequence_input = "QVQLVESGGGLVQAGGSLRLSCAASGSTFVNNAMGWYRQAPGKERELVASITVGGSTYYADSVKGRFTISRDNAKNTVYLQMNSLKPEDTAVYYCNVQYSYYASDYDYWGQGTQVTVSS"
measured = "low polyreactivity"

[[record]]
sequence_input = "QVQLVESGGGLVQAGGSLRLSCAASGRTFYAYAMGWYRQAPGKERELVAAISWRGGDTYYADSVKGRFTISRDNAKNTVELQMNSLKPEDTAVYYCAKDLSRQSGDGEYDYWGQGTQVTVSS"
measured = "low polyreactivity"

[[record]]
sequence_input = "QVQLQESGGGLVQAGGSLRQSYAASGYIFPSLAMGWYRQAPGKEREFVAAIGRGSTNNYADSVKGRFTISRDNAKNTAYQQMISLKPEDTAVYYCAAAASPLTRHLYWGQGTQVSVSS"
measured = "low polyreactivity"

[[record]]
sequence_input = "QVQLVESGGGLVQAGGSLRLSCAASGRNFKNYDMVWYRQAPGKERELVADISWRSGSTNYSDSVKGRFTISRDNAKNNVYLQMNSLKPEDTAVYYCASKRRISGWSQFTSYADFDYWGQGTQVTVSS"
measured = "low polyreactivity"

[[record]]
sequence_input = "QVQLVESGGGLVQAGGSLRLSCAASGSIFVPNTMGWYRQAPGKERELVAVISRSGGSTNYADSVKGRFTISRDNAKNTVYLQMNSLKPEDTAVYYCNADDGYSVWGYDYWGQGTQVTVSS"
measured = "low polyreactivity"

[[record]]
sequence_input = "QVQLEESGGGLVQAGGSLRLSCAASGRNFTYNTMGWYRQAPGKERELVAAITSGGSTYYADSVKGRFTSSRDNAKNTVYLQMNSLKPEDTAVYYCAKRSWAYTDYFVSEYYWGQGTQVTVSS"
measured = "high polyreactivity"

[[record]]
sequence_input = "QVQLVESGGGLVQAGGSLRLSCAASGRTFVYYAMGWYRQAPGKERELVAAIRSGGSTNYADSVKGRFTISRDNAKNTVYLQMNSLKPEDTAVYYCNAVHYYYYKGDYWGQGTQVTVSS"
measured = "high polyreactivity"

[[record]]
sequence_input = "QVQLVESGGGLVQAGGSLRLRCAASGSIFRVYAMGWYRQAPGKERELVATITWNGGSTYYADSVKGRFTISRDNAKNTVYLQMNSLKPEDTAVFYCAKPSSWRRVLPIDYWGQGTQVTVSS"
measured = "low polyreactivity"

[[record]]
sequence_input = "QVQLVESGGGLVQAGGSLRLSCAASGSIFNYYAMGWYRQAPGKERELVAAISSGDTTYYADSVKGRFTISRDNAKNTVYLQMNSLKPQDTAVYYCAAKPRSQVRYGYWGQGTQVTVSS"
measured = "low polyreactivity"

[[record]]
sequence_input = "QVQLVESGGGLVQAGGSLRLSCAASGFIIGVNDMGWYRQPPGKERELVAAITSGGNTNYADSVKGRFTISRDNAKNTVYLQMNSLKPEDTAVYYCIVDTRLPMDYWGQGTQVTVSS"
measured = "low polyreactivity"

[[record]]
sequence_input = "QVQLVESAGGLVQAGGSLSLSCAASGRTFVIYAMGSDRQAPGKERELVAGIDSGTSTYADSVKGRFTISRDNAKNTVYLQMNSLKPEDTAVYYCAADFAPDGAGWYIPGDYDSWGQGTQVTVSS"
measured = "low polyreactivity"

[[record]]
sequence_input = "QVQLVESGARLVPAGGTLRLSFADYGFNFGQYAMAWYRQAPGKERELVAAISWSGGSTYYAESVKGRFTISRDNAKNTVYLQMNSLKPEDTAVYYCGEELGDYWGQGTQVTVSS"
measured = "high polyreactivity"

[[record]]
sequence_input = "QVQLVESGGGLVQAGGSLRLSCAASGRTFFVYAMGWYRPAPGKERELVASITLSGGSTYYADSVKGRFTISRDKAKNTVYLQINSLKREDTAGYYCAKGWSRDNDLEREDEYWGHGTQVTVSS"
measured = "low polyreactivity"

[[record]]
sequence_input = "QVQLVESGGGLVQAGGSLRLSCAASGFTFASNDMGWYRQAPGKERELVASITKGGGRTYYADSVKGRFTISRDNAKNTVYLQMNSLKPEDTAVFYCAARQLIKYDYWGQGTQVTVSS"
measured = "low polyreactivity"

[[record]]
sequence_input = "QVQLVESGGGLVQAGGSLRLSCAASGSIFNRYTMGWYRQAPGKERELVAAISKRGGSTYYADSVKGRFTISRDNAKNTVYLQMNSLKPEDPAVYYCAAAGYHSGKGGGYWGQGTQVTVSS"
measured = "high polyreactivity"

[[record]]
sequence_input = "QVQLVESGGGLVQAGGSLRLSCAASGIIFKNYAMGWYRQAPGKERELVAAISWRGGRTYYADSVKGRFTISRDNAKNTVYLQMNSLIPEDTAVYYCAKELYVSYRGGPWVDYWGQGTQVTVSS"
measured = "high polyreactivity"


###

ASSAY_TEXT: yeast display, Sf9 membrane polyspecificity reagent, FACS + sequencing; frameworks hold sequencing errors
MEASURED_PROPERTY: polyreactivity (PSR sort gate)

[[record]]
sequence_input = "QVQLVESGGGLVQAGGSLRLSCAASGSTFRSYAMGWYRQAPGKERELVAAITSSGGRTYYADSVKGRFTISRDNAKHTVYLQMNSLKPEDTAVYYCAARTYSWGDWGQGTQVTVSS"
measured_property = "polyreactivity (PSR sort gate)"
measured = "high polyreactivity"

[[record]]
sequence_input = "QVQLVESGGGLVQAGGILRLSCAATGTTFSYYPMGWYRQAPGKERELVAAITNGGSTYYADSVKGRFTISRDNAKNTVYLQMNSLKPEDTAVYYCAADVSYWPYARYQRYPRYDYWGQGTQVTVSS"
measured_property = "polyreactivity (PSR sort gate)"
measured = "low polyreactivity"

[[record]]
sequence_input = "QVQLVESGGGLVQAGGSLRLSCAASGFTLIYYAMGWYRQAPGKERELVAGISRGVSTSYADSVMGRFTISRDNAKNTVYLQMNSLKPEDTAVYYCAAEGSPVDQSSIYDYWGQGTQVTVSS"
measured_property = "polyreactivity (PSR sort gate)"
measured = "low polyreactivity"

[[record]]
sequence_input = "QVQLVESGGGLVQAGGSLRLSCAASGRNFYVYAMGWYRQAPGKERELVATISRGGSTTYADSVKGRFTISRDNAKNTVYLQMNSLKPEDTAVYYCATELLGGRRTVAYYWGQGTQVTVSS"
measured_property = "polyreactivity (PSR sort gate)"
measured = "low polyreactivity"

[[record]]
sequence_input = "QVQLVESGGGLVQAGGSLRLSCAASGSIFWVYVLGWYRQAPGKERELVAAITNGGSTDYADSVKGRFTISRDNAKNTVYLQMNSLKPEDTAVYYCAKRSTIWGRILITYDYWGQGTQVTVSS"
measured_property = "polyreactivity (PSR sort gate)"
measured = "low polyreactivity"

[[record]]
sequence_input = "QVQLVESRGGLVQAGGSLRLSCAASGFTFSWYAMGWYRQAPGKERELVAAITRSGGSTNYADSVKGRFTMSRDNAKNTVYLQMNSLKPEDTAVYYCAARYSPGFGYWGKGTQVTVSS"
measured_property = "polyreactivity (PSR sort gate)"
measured = "high polyreactivity"

[[record]]
sequence_input = "QVQLVESGGGLVQAGGSLRLSCAASGGTFETYALGWYIPAPGKEREFVAANSRSGGSTYYADSVKGRFTISRDNAKNTVYLQMNSLKPEDTAVYYCAAEGYDLSSRVYGGYDYWGQGTQVTVSS"
measured_property = "polyreactivity (PSR sort gate)"
measured = "low polyreactivity"

[[record]]
sequence_input = "QVQLVESGGGLVQAGGSLRLSCAASGSIFGYYAMGWYRQAPGKERELVAAISGNGGNTYYADSVKGRFTISRDNAKNTVYLQMNSLKPEDTAVYYCNRAPGYRGGRYDYWGQGTQVTVSS"
measured_property = "polyreactivity (PSR sort gate)"
measured = "high polyreactivity"

[[record]]
sequence_input = "QVQLVESGGGLVQAGGSLRLSCAASGSIFSFNAKGWYRQAPGKERELVAAITTSGGSTYYADSVKGRFTISRDNAKNTVYLQMNSLKPEDTAVYYCAAVRPDNSLYEPMDYWGQGTQVTVSS"
measured_property = "polyreactivity (PSR sort gate)"
measured = "low polyreactivity"

[[record]]
sequence_input = "QVQLVESGGGLVQAGGSLRLSCAASGSILYPNAMGLYRQAPGKERELVAAISSSGGSTYYADSVKGRFTISRDNAKNTVYLQMNSLKPEDTAVYYCAADHYIPIYSKYDYWGQVTQVTVSS"
measured_property = "polyreactivity (PSR sort gate)"
measured = "high polyreactivity"

[[record]]
sequence_input = "QVQLVESGGGLVQEGGSLRLSCAASGFIFAWYDMGWYRQAPGKERELVAAISYYGGSTYYADSVKGRFTISRDNAKNTVYLQMNSLKPVDTAVYYCIKVSRGGSYGDAFDYWGQGTQVTVSS"
measured_property = "polyreactivity (PSR sort gate)"
measured = "high polyreactivity"

